- Species: Rattus norvegicus
- Method Description: DrugMatrix - Regimen: Daily Repeat
- Format: toxicity, organism-based, Sprague-Dawley
- Parameters: regimen Daily Repeat, gender Male, age 6-8 weeks
- Assay Context: in vivo, po, 0 mg/kg, 120 h, tissue Plasma, route oral GAVAGE, dose level Control, time 5 day, vehicle .5 % CMC
Output Criterion met for CREATINE PHOSPHOKINASE not less than 300 u/L; output Criterion not met otherwise.

[
  {
    "Molecule": "C[C@@H]1CC[C@H]2[C@@H](C)C(=O)O[C@@H]3O[C@@]4(C)CC[C@@H]1[C@]32OO4 [ARTEMISININ]",
    "Class": "Criterion met"
  },
  {
    "Molecule": "Nc1cccc(Cl)c1 [3-CHLOROANILINE]",
    "Class": "Criterion not met"
  },
  {
    "Molecule": "CCCCC1C(=O)N(c2ccccc2)N(c2ccccc2)C1=O [PHENYLBUTAZONE]",
    "Class": "Criterion met"
  },
  {
    "Molecule": "C=C(CC)C(=O)c1ccc(OCC(=O)O)c(Cl)c1Cl [ETHACRYNIC ACID]",
    "Class": "Criterion not met"
  },
  {
    "Molecule": "CN1C(=O)CN=C(c2ccccc2)c2cc(Cl)ccc21 [DIAZEPAM]",
    "Class": "Criterion not met"
  }
]
